# System: OVCAR-3 ovarian
# protocol details: NCI tumour cell line growth inhibition, 48 h
property label: TGI

Before answering, review these 5 worked examples.
molecule	TGI
Cc1nc(N)c(N2CCN([N+](=O)[O-])CC2)c(=O)[nH]1	> 100 µM
CSc1nsc(-c2ccccc2)[s+]1	> 100 µM
COc1ncnc(NS(=O)(=O)c2ccc(N=C3C(=O)N(CN4CCN(c5c(F)cc6c(=O)c(C(=O)O)cn(C7CC7)c6c5OC)CC4C)c4ccc(Cl)cc43)cc2)c1OC (stereo not drawn)	> 50 µM
CC(C)C(C)/C=C\C(C)C1CCC2C3=CC=C4CC(O)CCC4(C)C3CCC21C (stereo not drawn)	> 80.5 µM
N#CC(C#N)=CNC(N)=S	> 100 µM

Next up:
// query Tell me the measured TGI of CSC(=S)N(C)C , please.
// result > 100 µM
